Let's look at some compounds and their measured solubility.
- ASSAY: physchem
- TEST CONDITIONS: aqueous, pH 7.4
- Description: Aqueous solubility of the compound at pH 7.4 by HPLC analysis

>  <ENTRY SMILES>
COc1cccc2[nH]c(C)c(-c3ccccc3)c(=O)c12

>  <SIGN>
>

>  <solubility, µM>
20

$$$$
>  <ENTRY SMILES>
CCCCC#Cc1c(C)[nH]c2ccc(F)cc2c1=O

>  <SIGN>
=

>  <solubility, µM>
2

$$$$
>  <ENTRY SMILES>
CCCCCCCc1c(C)nc2cc(OC)ccc2c1O

>  <SIGN>
=

>  <solubility, µM>
2

$$$$
>  <ENTRY SMILES>
Cc1[nH]c2ccccc2c(=O)c1Cc1ccccc1

>  <SIGN>
=

>  <solubility, µM>
10

$$$$
>  <ENTRY SMILES>
COc1ccc2nc(C)c(Cc3ccccc3)c(OC)c2c1

>  <SIGN>
=

>  <solubility, µM>
2

$$$$
>  <ENTRY SMILES>
CCCCCCCc1c(C)[nH]c2cc(OC)c(Cl)cc2c1=O

>  <SIGN>
<

>  <solubility, µM>
2

$$$$
